- assay method text: Antioxidant activity assessed as trolox equivalents of AAPH radical scavenging activity at 5 uM preincubated for 15 mins followed by AAPH addition measured every 60 sec for 90 mins by ORAC-FL assay
- Assay type: functional
Could you please report measured Activity for the items listed next?
Give bare numbers, in µMequiv/µM.

# count of solved cases: 4
CN(C)c1ccc(/C=C/C(=O)c2ccc(O)cc2O)cc1 2
CCN(C)C(=O)Oc1ccc(C(=O)/C=C/c2ccc(N(C)C)cc2)c(O)c1 3.14
CN(C)c1ccc(/C=C/C(=O)c2ccc(OC(=O)N3CCCCC3)cc2OC(=O)N2CCCCC2)cc1 2.41
CN1CCN(C(=O)Oc2ccc(C(=O)/C=C/c3ccc(N(C)C)cc3)c(O)c2)CC1 2.08

Notebook: "CCN(CC)C(=O)Oc1ccc(C(=O)/C=C/c2ccc(N(C)C)cc2)c(O)c1" , Activity read as 2.2

---

Acetylcholinesterase (Electrophorus electricus, UniProt O42275) measurements of IC50, listed per entry.
Sequence (O42275 whole entry): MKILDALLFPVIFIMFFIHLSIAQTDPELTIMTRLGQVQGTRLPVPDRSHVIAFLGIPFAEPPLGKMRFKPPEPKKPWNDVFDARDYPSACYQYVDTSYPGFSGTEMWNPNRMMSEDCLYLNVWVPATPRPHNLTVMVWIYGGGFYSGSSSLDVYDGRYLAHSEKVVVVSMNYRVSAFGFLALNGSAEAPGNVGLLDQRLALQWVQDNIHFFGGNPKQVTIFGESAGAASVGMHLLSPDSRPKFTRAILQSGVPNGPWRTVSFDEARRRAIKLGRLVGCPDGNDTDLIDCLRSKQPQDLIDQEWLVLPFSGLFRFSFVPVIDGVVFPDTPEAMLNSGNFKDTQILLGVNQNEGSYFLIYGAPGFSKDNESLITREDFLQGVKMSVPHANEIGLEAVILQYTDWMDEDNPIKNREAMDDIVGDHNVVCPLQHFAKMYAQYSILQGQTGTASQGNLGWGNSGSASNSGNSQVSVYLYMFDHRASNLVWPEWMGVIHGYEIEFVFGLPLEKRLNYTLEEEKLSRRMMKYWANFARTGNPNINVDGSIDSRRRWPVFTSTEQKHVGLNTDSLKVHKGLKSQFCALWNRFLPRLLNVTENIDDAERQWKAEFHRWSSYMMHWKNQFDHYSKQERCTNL
One number for each entry, in µM.

# count of solved cases: 2
CN(C)c1ccc(/C=C/C(=O)c2ccc(OC(=O)N3CCOCC3)cc2OC(=O)N2CCOCC2)cc1 58
CCN(C)C(=O)Oc1ccc(C(=O)/C=C/c2ccc(N(C)C)cc2)c(O)c1 14.3

For the next question, use this compound.
Entry "CN(C)C(=O)Oc1ccc(C(=O)/C=C/c2ccc(N(C)C)cc2)c(O)c1" , Acetylcholinesterase (Electrophorus electricus, UniProt O42275) data, IC50 value: 32.6

---

- assayed system: Amyloid-beta precursor protein (Homo sapiens)
- assay method text: Inhibition of self-induced aggregation of amyloid beta (1-42) (unknown origin) at 25 uM after 24 hrs by thioflavin T fluorescence-based fluorimetric method relative to control
Param threshold (70%) applies to inhibition; output YES when value >= threshold, NO when value < threshold.

Previously resolved entries follow.
CCN1CCN(C(=O)Oc2ccc(C(=O)/C=C/c3ccc(N(C)C)cc3)c(O)c2)CC1 YES
CN(C)c1ccc(/C=C/C(=O)c2ccc(OC(=O)N3CCOCC3)cc2O)cc1 YES
CN(C)c1ccc(/C=C/C(=O)c2ccc(OC(=O)N3CCCC3)cc2O)cc1 YES
CN(C)c1ccc(/C=C/C(=O)c2ccc(OC(=O)N3CCOCC3)cc2OC(=O)N2CCOCC2)cc1 NO

Form field: inhibition at least 70%? Entry: "CN(C)c1ccc(/C=C/C(=O)c2ccc(OC(=O)N3CCCCC3)cc2OC(=O)N2CCCCC2)cc1"
NO

Form field: inhibition at least 70%? Entry: "CCN(CC)c1ccc(/C=C/C(=O)c2ccc(OC(=O)N3CCCC3)cc2O)cc1"
NO

The values you see were collected from ChEMBL document CHEMBL3875206.
